These data points were gathered from PubChem BioAssay.

Target system: Homeobox protein Hox-A13 (Mus musculus)
Assay method text: inhibitors of HoxA13-DNA binding, primary screen, biochemical, fluorescence polarization, labeled oligonucleotide (AID 1185)
Condition set: 15 min, higher = more signal, called active from +8 up or from −8 down
Form field: z-score (one value per entry).

| Compound | z-score |
| --- | --- |
| CCOC(=O)C[C@H]1[C@H](OC(=O)c2ccc(-c3ccccc3)cc2)[C@@H](NC(=O)c2ccccc2)c2cc(OCCCO)ccc2N1C(=O)c1ccccc1 | -0.959 |
| Cc1ccc(N2C(=O)c3ccccc3[C@](C)(C(=O)NCC(F)(F)F)[C@@H]2c2ccc(CO)cc2)nc1 | -1.16 |
| CC(C)N1CC=CC23O[C@@H]4/C=C\CCCOC(=O)C4[C@H]2C(=O)N(CCCO)[C@@H]3C1=O (some centres undefined) | -4.49 |
| C=CC[C@@]1(C(=O)NCc2ccccc2)N=C(c2ccc(OCCCO)cc2)O[C@@H]1c1ccccc1 | -6.13 |

###

Recorded z-score by entry
Assay method text: inhibitors of hydroxyurea-induced Chk1 phosphorylation, primary screen, imaging, HeLa, phospho-Chk1 nuclear intensity (AID 1187); also: test concentration not given here
Condition set: hydroxyurea-induced phospho-Chk1 immunofluorescence imaging, higher = more signal

| Compound | z-score |
| --- | --- |
| CCN(CC)c1ccc(N2CC=CC34O[C@@H]5C=CCOC(=O)[C@@H]5[C@H]3C(=O)N(C(CO)C(C)C)[C@@H]4C2=O)cc1 (some centres undefined) | 0.286 |
| COc1ccc([Si](C)(C)[C@H]2[C@H](CC(=O)N(CCO)Cc3ccccc3)O[C@@]3(C(=O)N(Cc4cccc(N5C(=O)COc6ccccc65)c4)c4ccccc43)[C@@H]2C)cc1 | 0.722 |
| C=CC[C@]1(C(=O)N2CCCCC2)COC(c2ccc(OCCCO)cc2)=N1 | -1.06 |
| COc1ccc([Si](C)(C)[C@H]2[C@H](CC(=O)N3Cc4ccccc4C[C@H]3CO)O[C@@]3(C(=O)N(Cc4cccc(N5C(=O)COc6ccccc65)c4)c4ccccc43)[C@@H]2C)cc1 | -0.221 |
| COCCCNC(=O)[C@@]1(Cc2ccccc2CN=[N+]=[N-])COC(c2ccc(OCCCO)cc2)=N1 | -0.73 |
| COCCOC(=O)N1C(=O)[C@@]2(c3cc(C#CC4(O)CCCCCC4)ccc31)[C@H](C(=O)NC[C@H](O)c1ccccc1)[C@H]1C(=O)O[C@H](c3ccccc3)[C@H](c3ccccc3)N1[C@@H]2c1ccccc1OCCO | 0.992 |
| COC(=O)C1=CC(CCCO)=CC(C2CC2)N(Cc2cc3c(cc2Br)OCO3)C=C1C(=O)OC (centres undefined) | -0.201 |
| CN1C=C(C(=O)OCCS(C)(=O)=O)C(C(=O)OCCS(C)(=O)=O)=CC(CCCO)=CC1c1cccs1 (centres undefined) | -0.389 |
| C=C(/C(=C/C[C@H](OC(C)=O)c1cccc(OCCO)c1)c1cc(C(=O)OC)ccc1OC)C(C)C | 0.641 |
| O=C(O)[C@H]1C[C@H]2C(=O)NCC(=O)N2[C@H]1c1cccc(OCCO)c1 | 0.212 |
| CCOC(=O)C[C@H]1[C@H](OC(=O)c2ccc(-c3ccccc3)cc2)[C@@H](NC(=O)c2ccccc2)c2cc(OCCCO)ccc2N1C(=O)c1ccccc1 | -0.361 |
| C=CCN1C(=O)[C@@]2(O[C@@H](CCn3cc(CCO)nn3)[C@H]([Si](C)(C)c3ccc(OC)cc3)[C@H]2C)c2cc(NC(=O)c3ccc(OC)cc3)ccc21 | 1.28 |
| CC(C)(C)OC(=O)CC[C@]1(C(=O)NCc2ccccc2)N=C(c2ccc(OCCCO)cc2)O[C@H]1c1ccccc1N=[N+]=[N-] | 0.252 |
| CCCCC(=C=CC[C@H](O)c1cccc(OCCO)c1)CCO | -0.401 |
